Target: T1, ZIKV prM/E polyprotein on virus-like particles (VLPs) from HEK293T/17 cells (Zika virus, UniProt A0A024B7W1 123-795)
T1 construct: also called ZIKV prM/E VLPs; Zika prM/E VLPs
Experiment: MSD ECL, VLPs on plate
The entries below are paired with their reported EC50.

# count of solved cases: 2
H4H25587P (antibody, V domains shown) VH: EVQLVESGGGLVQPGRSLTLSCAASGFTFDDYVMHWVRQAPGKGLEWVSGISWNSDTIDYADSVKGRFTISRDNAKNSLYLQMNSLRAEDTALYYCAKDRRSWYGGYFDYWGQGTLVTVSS VL: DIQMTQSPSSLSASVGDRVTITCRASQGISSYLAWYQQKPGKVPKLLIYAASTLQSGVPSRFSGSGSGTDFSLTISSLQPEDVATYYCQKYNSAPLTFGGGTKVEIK    0.145 nM
H4H25566P (antibody, V domains shown) VH: QVQLQESGPGLVKPSQTLSLTCTVSGGSISSGGYYWSWIRQHPGKGLEWIGYIYYSGSTYYNPSLKSRITISIDTSKNQFSLKLTSVTAADTAVYYCARGQQLLSFDYWGQGTLVTVSS VL: DIQMTQSPSSVSASVGDRVTITCRASQGISRWLAWYQLKPGKPPTPLIYAASSLQSGAPSRFSGRGSGTDFTLTISSLQPEDFATYYCQQANSFPYTFGQGTKLEIK    0.82 nM

Ask: Indicate the recorded EC50 value for this binder: H4H25598P (antibody, V domains shown) VH: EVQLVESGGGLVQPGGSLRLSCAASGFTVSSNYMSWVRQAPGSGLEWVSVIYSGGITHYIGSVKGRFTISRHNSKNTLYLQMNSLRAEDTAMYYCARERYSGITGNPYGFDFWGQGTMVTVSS VL: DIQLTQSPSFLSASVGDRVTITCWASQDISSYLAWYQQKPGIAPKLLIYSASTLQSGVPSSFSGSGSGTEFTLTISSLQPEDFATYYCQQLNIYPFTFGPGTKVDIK
Reply: 0.426 nM
